- systemName: human recombinant HDAC6 (Homo sapiens)
- Construct: purchased Calbiochem Inc. 382180
- Sequence (Q9UBN7 whole entry): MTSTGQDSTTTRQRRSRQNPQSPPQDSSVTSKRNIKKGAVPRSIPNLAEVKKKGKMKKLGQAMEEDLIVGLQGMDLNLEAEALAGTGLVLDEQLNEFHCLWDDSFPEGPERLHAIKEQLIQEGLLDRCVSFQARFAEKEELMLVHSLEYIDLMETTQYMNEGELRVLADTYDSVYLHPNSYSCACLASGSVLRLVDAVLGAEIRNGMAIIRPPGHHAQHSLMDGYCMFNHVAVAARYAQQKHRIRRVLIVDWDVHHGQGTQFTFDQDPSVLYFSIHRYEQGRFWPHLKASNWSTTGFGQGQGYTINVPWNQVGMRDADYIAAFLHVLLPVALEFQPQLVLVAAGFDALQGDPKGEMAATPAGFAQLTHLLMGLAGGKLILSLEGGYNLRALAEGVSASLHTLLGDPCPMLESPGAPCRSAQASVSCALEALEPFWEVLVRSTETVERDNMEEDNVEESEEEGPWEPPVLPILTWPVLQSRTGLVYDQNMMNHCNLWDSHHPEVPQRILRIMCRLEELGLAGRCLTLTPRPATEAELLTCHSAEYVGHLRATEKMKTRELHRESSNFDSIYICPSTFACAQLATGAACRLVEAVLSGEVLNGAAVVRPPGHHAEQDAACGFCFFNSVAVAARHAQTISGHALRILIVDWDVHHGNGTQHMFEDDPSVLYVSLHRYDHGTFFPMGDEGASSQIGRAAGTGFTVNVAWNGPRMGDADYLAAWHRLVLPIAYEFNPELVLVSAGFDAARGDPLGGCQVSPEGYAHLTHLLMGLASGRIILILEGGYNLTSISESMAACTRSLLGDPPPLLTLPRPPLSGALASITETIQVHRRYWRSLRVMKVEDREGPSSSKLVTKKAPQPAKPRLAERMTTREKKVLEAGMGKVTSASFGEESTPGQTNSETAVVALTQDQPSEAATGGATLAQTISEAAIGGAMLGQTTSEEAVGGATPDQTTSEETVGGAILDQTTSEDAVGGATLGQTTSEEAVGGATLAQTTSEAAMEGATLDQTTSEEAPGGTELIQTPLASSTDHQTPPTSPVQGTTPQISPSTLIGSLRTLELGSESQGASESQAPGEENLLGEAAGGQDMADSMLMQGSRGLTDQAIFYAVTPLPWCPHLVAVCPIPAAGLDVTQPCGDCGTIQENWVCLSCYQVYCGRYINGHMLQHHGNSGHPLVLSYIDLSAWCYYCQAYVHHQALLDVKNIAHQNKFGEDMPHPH
- experimentSummary: In vitro HDAC enzyme activity inhibition assay (HDAC6)
- Format: biochemical
- details: HDAC6 over HDAC1
Examples of compounds with documented HDAC6 selectivity (fold) follow.

Please review the entries below; each comes with its answer.
INSERT INTO results (smilescode, systemname, parametermeasured, observedvalue) VALUES
  ('O=S(=O)(C1CCN(C2CCC(F)(F)CC2)CC1)N(Cc1cn2ccc(-c3nnc(C(F)F)o3)cc2n1)c1cccc(F)c1', 'human recombinant HDAC6 (Homo sapiens)', 'HDAC6 selectivity (fold)', '525 fold'),
  ('O=S(=O)(N1CCN(C2CCC(F)(F)CC2)CC1)N(Cc1cn2ccc(-c3nnc(C(F)F)o3)cc2n1)c1cccc(F)c1', 'human recombinant HDAC6 (Homo sapiens)', 'HDAC6 selectivity (fold)', '437 fold');

Kindly consider the entry below.
Data request: Please give measured HDAC6 selectivity (fold) of the following entry: O=S(=O)(N1CCN(C2CCCCC2)CC1)N(Cc1cn2ccc(-c3nnc(C(F)F)o3)cc2n1)c1cccc(F)c1
Data returned: 299 fold
